- test.details: Acute toxicity test
- Assay type: in vivo
- assay.conditions: mouse, in vivo, iv, female mice; route not restated (follows intravenous paragraph); read-out: 50% lethal dose (LD50)
test.readout: LD50 (mg/kg)
Could you give me the number in mg/kg? Just the number is fine.

**Q:** Give me measured LD50, please, for this compound: C[C@@H](O)[C@H]1C(=O)N2C(C(=O)O)=C([C@H]3CCCO3)S[C@H]12
**A:** 456

---

Assign MIC to each entry below.
Field format: number, assumed µg/mL, no unit text.

**Q:** // fetch MIC; item: C[C@@H](O)[C@H]1C(=O)N2C(C(=O)O)=C([C@H]3CCCO3)S[C@H]12 ; system: F. varium ATCC8501
**A:** 0.2

**Q:** Report the value of MIC obtained on F. varium ATCC8501 for C[C@@H](O)[C@H]1C(=O)N2C(C(=O)O)=C([C@@H]3CCCO3)S[C@H]12 [SUN 4434] .
**A:** 1.56

**Q:** Provide the reported MIC (system: F. varium ATCC8501) for C[C@@H](O)[C@H]1C(=O)N2C(C(=O)O)=C(C3CCCO3)S[C@H]12 (relative stereo)
**A:** 0.78

**Q:** Provide F. varium ATCC8501 MIC reading for C[C@@H](O)[C@H]1C(=O)N2C(C(=O)O)=C(c3ccco3)S[C@H]12 (relative stereo) [SUN 4194, reference compound] .
**A:** 6.25

**Q:** Provide MIC, recorded with F. varium ATCC8501, of C[C@@H](O)[C@H]1C(=O)N2C(C(=O)O)=C([C@@H]3CCCCO3)S[C@H]12
**A:** 6.25

**Q:** # return MIC of C[C@@H](O)[C@H]1C(=O)N2C(C(=O)O)=C([C@@H]3CCCO3)S[C@H]12 (relative stereo) [SUN 4118] (system: F. varium ATCC8501)
**A:** 1.56

**Q:** For F. varium ATCC8501, give the measured MIC of the entry C[C@@H](O)[C@H]1C(=O)N2C(C(=O)O)=C(C3COCCO3)S[C@H]12 (mixture of isomers)
**A:** 0.78

**Q:** Report MIC from F. varium ATCC8501 testing of C[C@@H](O)[C@H]1C(=O)N2C(C(=O)O)=C([C@@H]3CCOC3)S[C@H]12
**A:** 0.1

**Q:** Output reported MIC of the molecule C[C@@H](O)[C@H]1C(=O)N2C(C(=O)O)=C(Cc3ccsc3)S[C@H]12 (relative stereo) [SUN 3514, reference compound] on F. varium ATCC8501.
**A:** 0.39

**Q:** Provide MIC, tested on F. varium ATCC8501, for COCC1=C(C(=O)O)N2C(=O)[C@H]([C@@H](C)O)[C@H]2S1 (relative stereo) [SUN 3585, reference compound] .
**A:** 0.78

**Q:** Quote MIC with test system F. varium ATCC8501 for C[C@@H](O)[C@H]1C(=O)N2C(C(=O)O)=C(c3ccoc3)S[C@H]12 (relative stereo) [SUN 4196, reference compound]
**A:** 6.25

**Q:** # assay system F. varium ATCC8501: give MIC of CCSCC1=C(C(=O)O)N2C(=O)[C@H]([C@@H](C)O)[C@H]2S1 (relative stereo) [SUN 3515, reference compound]
**A:** 0.39

**Q:** Answer briefly: MIC recorded on F. varium ATCC8501 for C[C@@H](O)[C@H]1C(=O)N2C(C(=O)O)=C([C@H]3COCCO3)S[C@H]12
**A:** 0.78

**Q:** # return MIC for C[C@@H](O)[C@H]1C(=O)N2C(C(=O)O)=C([C@H]3CCOC3)S[C@H]12 , test system: F. varium ATCC8501
**A:** 0.39

**Q:** Under F. varium ATCC8501, report MIC for C[C@@H](O)[C@H]1C(=O)N2C(C(=O)O)=C([C@@H]3COCCO3)S[C@H]12
**A:** 3.13

Data provenance: patent US4997829A
